Value source: the supplement of paper PMC8728848

- assayed-target: GalNAc(b1-4)Gal(b1-4)Glc
- protocol-summary: glycan array binding signal (z-score within array); higher = stronger binding
- experimental-setup: glycan notation: IUPAC condensed, linker removed
Shown is part of a subset that was picked to be rich in the strongest signals.
Please go through the items and note down their glycan array binding signal (z-score).
Answers are plain numbers.

Examples with answers:
binder | glycan array binding signal (z-score)
OS9 (Arabidopsis thaliana) (protein) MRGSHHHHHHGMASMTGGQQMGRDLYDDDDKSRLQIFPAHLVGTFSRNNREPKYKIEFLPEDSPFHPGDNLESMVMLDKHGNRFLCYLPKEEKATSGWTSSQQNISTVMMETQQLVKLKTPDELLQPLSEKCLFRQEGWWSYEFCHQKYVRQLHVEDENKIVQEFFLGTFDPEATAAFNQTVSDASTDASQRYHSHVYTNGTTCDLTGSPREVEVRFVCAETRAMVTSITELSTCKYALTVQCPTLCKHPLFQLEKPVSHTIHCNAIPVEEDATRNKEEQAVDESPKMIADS | 2.57
HML-Native (Hypnea musciformis), P84871 (protein) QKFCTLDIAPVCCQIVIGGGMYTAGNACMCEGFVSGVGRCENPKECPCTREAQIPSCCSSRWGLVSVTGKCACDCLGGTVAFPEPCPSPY | -0.252

From here, focus on the item given below.
(Q) Any idea what its glycan array binding signal (z-score) is? The binder is CLEC5A (Homo sapiens), Q9NY25 (protein) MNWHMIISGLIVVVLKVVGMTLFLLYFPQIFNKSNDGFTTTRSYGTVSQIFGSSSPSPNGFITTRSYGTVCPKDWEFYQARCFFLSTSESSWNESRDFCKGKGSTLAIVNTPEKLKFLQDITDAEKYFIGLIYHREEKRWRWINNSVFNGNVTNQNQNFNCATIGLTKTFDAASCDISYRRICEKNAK
(A) -0.144
